target: Retinal rod rhodopsin-sensitive cGMP 3',5'-cyclic phosphodiesterase subunit delta (Homo sapiens)
Sequence (O43924 whole entry): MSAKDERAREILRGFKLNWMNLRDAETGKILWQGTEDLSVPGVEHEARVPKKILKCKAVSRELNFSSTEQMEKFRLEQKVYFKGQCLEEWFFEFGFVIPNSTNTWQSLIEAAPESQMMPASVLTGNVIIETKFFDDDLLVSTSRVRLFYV
OBSERVED PROPERTY: pKd
Keep in mind that pKd stands for -log10 of concentration in molar terms.

Quick one: pKd of Cc1ccc(-n2nc3c(=O)n(CCC(=O)N4CCC(N5C(=O)c6ccccc6NC5c5ccccc5F)CC4)nc(C)c3c2C)cc1 (stereo unspecified) ?
8.29

====

tested on: HCT-116; assay: Antiproliferative activity against human HCT-116 cells assessed as inhibition of cell growth incubated for 72 hrs in presence of 1-(4-(piperidin-1-ylsulfonyl)phenyl)-3-(pyridin-3-ylmethyl)thiourea by CCK8 assay; format: functional, cell-based; conditions: HCT-116, 72 h
OBSERVED PROPERTY: IC50
# do not omit the unit; it follows the number

Quick one: IC50 of Cc1ccc(-n2nc3c(=O)n(CCC(=O)N4CCC(N5C(=O)c6ccccc6NC5c5ccccc5F)CC4)nc(C)c3c2C)cc1 (stereo unspecified) ?
233 nM

====

system: MIA PaCa-2; test: cells; conditions: Homo sapiens, MIA PaCa-2, 72 h
Description: Antiproliferative activity against human MIA PaCa-2 cells assessed as inhibition of cell growth incubated for 72 hrs by CCK8 assay
OBSERVED PROPERTY: IC50 (nM)
Report only the number, with the unit nM understood.

Give recorded IC50 with MIA PaCa-2 for the following molecule: `O=C(/C=C/c1cccnc1)Nc1ccc(S(=O)(=O)N(Cc2ccc(Cl)cc2)C2CCCC2)cc1`
36

====

molecular target: UniProt:P43490
Sequence (P43490 whole entry): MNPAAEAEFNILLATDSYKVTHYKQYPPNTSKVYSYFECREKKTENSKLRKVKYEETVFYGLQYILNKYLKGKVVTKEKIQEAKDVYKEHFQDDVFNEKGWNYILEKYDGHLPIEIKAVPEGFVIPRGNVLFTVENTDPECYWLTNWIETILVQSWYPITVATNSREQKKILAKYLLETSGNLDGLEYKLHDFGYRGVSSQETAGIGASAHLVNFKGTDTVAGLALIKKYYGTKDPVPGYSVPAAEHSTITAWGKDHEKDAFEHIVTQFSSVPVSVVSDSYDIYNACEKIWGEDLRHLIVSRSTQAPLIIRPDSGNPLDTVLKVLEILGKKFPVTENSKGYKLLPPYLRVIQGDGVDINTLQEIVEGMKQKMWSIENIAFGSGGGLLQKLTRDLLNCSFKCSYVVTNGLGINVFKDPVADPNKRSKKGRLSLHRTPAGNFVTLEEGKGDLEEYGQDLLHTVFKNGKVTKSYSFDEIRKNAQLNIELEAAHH
OBSERVED PROPERTY: IC50 (nM)
Report only the number, with the unit nM understood.

Give recorded IC50 with UniProt:P43490 for the following compound: `O=C(/C=C/c1cccnc1)Nc1ccc(S(=O)(=O)N(Cc2ccc(Cl)cc2)C2CCCC2)cc1`
266
